Property: glycan array binding signal (z-score); scope: individual binders
TARGET_DESC: Neu5Ac(a2-3)Gal(b1-4)[Fuc(a1-3)]GlcNAc(b1-6)[Neu5Ac(a2-3)Gal(b1-3)]GalNAc
MEASUREMENT_NOTES: glycan array binding signal (z-score within array); higher = stronger binding
CONDITION_LABEL: glycan notation: IUPAC condensed, linker removed
The entries come from a sample that favours the strongest signals as a whole.

BINDER	glycan array binding signal (z-score)
Ovorubin (Pomacea canaliculata), J7I2T6 (protein) MFVATSLLLAIATLVVRASPHNYLIMDIEPPKSVSERDILNLLSPLQVKHSFRVTGSTRLLIVIRLDAQSYEKLDEITVPGKVEVIPAVNMADTMERCGVSWPRVELTDDNVTLFESESTLTDVTKEQLKAMLIGYGEHMSGLLQAHRFEYYQAAGATPHRHFVFVNSVPDEIEVFGREGVDIWGGPGEFVVKPQYVTRI	-0.055
Cohesin-mDCIR (Macaca mulatta) (protein) GLDDLDAVRIKVDTVNAKPGDTVRIPVRFSGIPSKGIANCDFVYSYDPNVLEIIEIEPGDIIVDPNPDKSFDTAVYPDRKIIVFLFAEDSGTGAYAITKDGVFATIVAKVKEGAPNGLSVIKFVEVGGFANNDLVEQKTQFFDGGVNVGDTTEPATPTTPVTTPTTTDDLDAASFQKYSQLLEKMTTKDLVHTTLECVKKNMTTEETAWSCCPKNWKPFSSNCYFISTESASWQKSEKDCARMEAHLLVINTREEQDFIFQNLQEESAYFVGLSDPEGQRHWQWVDRTPYNESSTFWHPHEPSDPDERCVVLNFRKTPKRWGWNDVHCIVHQRSVCEMMKIHLHHHHHH	-0.363
Nc3LysM-2 (protein) AHVLQARQSVSCDFATAANTGDTCASFAAAWGITEAAFAKLNPGVSCPGNLIAGSEYCVIGTVSTGAPTTTKAATTSTTPPTTTTTTKATTLSTSTTSVSPTGPSPQMPSITSTCNKFYQVQSGDGCWSIEQAQGVSASDFMAWNKAVDAQCDNLWLGYYVCVGVKGGSSPPPTTTTKPASSSAPTPQMPNTVSNCKKFHKVVSGDGCWAIEQAAGISASDFAKWNPYVDAACDNLWLGYYVCIGV	2.08
Threefoil (Haloarcula marismortui) (protein) GSSHHHHHHHHHHSSGLVPRGSHMGDGYYKLVARHSGKALDVENASTSDGANVIQYSYSGGDNQQWRLVDLGDGYYKLVARHSGKALDVENASTSDGANVIQYSYSGGDNQQWRLVDLGDGYYKLVARHSGKALDVENASTSDGANVIQYSYSGGDNQQWRLVDL	0.108
AT5G24760(45) (Arabidopsis thaliana), Q8LEB2 (protein) MSASSSSFEQPQVITCNAAVAWRAGEPLVMEEVEVSPPQPLEIRIKVVCTSLCRSDLSAWESQSLLPRIFGHEAAGIVESIGEGVTEFEKGDHVLAVFTGECGSCRHCISGKSNMCQVLGMERKGLMHSDQKTRFSIKGKPVYHYCAVSSFSEYTVVHSGCAVKVDPLAPLHKICLLSCGVAAGLGAAWNVADVQKGSSVVIFGLGTVGLSVAQGAKLRGAAQILGVDINPAKAEQAKTFGVTDFINSNDLSEPIPQVIKRMTGGGADFSFECVGDTGIATTALQSCSDGWGMTVTLGVPKAKPEVSAHYGLFLSGKSLKGTLFGGWKPKSDLPSLIDKYMNKEIMIDEFITHNLSFDEINKAFVLMREGKCLRCVLHMPK	2.76
FGF1 (Homo sapiens), P05230 (protein) MAEGEITTFTALTEKFNLPPGNYKKPKLLYSNGGHFLRILPDGTVDGTRDRSDQHIQLQLSAESVGEVYIKSTETGQYLAMTDGLLYGSQTPNEECLFLERLEENHYNTYISKHAEKNWFVGLKKNGSCKRGPRTHYGQAILFLPLPASSED	0.465
AT3G09350(27) (Arabidopsis thaliana), Q84J81 (protein) MAKDGPNWDGLLKWSLSHADGTRPTRQLSEEDRKWFMEAMQSQTVDVVKRMKEITLVMQTPEQVLVEHGVTPEDIQDLLDELQEHVESIDMANDLHSIGGLVPLLSFLKNSHANIRAKAADVVSTIVQNNPRSQELVMETNALESLLSNFTSDTDIHARTQALGAISSLIRHNKPGVTAFKLANGYAGLRDALASDSVRFQRKALNLLQYLLQEDDSDRSIATGLGFPRVMMHLASSDDAEIREAALRGLLELSREKNDGSSSIDKSDEKLRQLLEERIKGITLMSQEDLETVKEERQLVDLLWSICYNEPSSLREKGLVVLPGEDALPPDVASKLFEPPLRASAANRNATEKKDEPMKLLGP	0.415
ERGIC1-EDTA (Homo sapiens), Q969X5 (protein) MKFLVNVALVFMVVYISYIYAAAHMHHHHHHDYDIPTTENLYFQGSEVVNELYVDDPDKDSGGKIDVSLNISLPNLHCELVGLDIQDEMGRHEVGHIDNSMKIPLNNGAGCRFEGQFSINKVPGNFHVSTHSATAQPQNPDMTHVIHKLSFGDTLQVQNIHGAFNALGGADRLTSNPLASHDYILKIVPTVYEDKSGKQRYSYQYTVANKEYVAYSHTGRIIPAIWFRYDLSPITVKYTE	1.03
LSectin (Mus musculus), Q8BNX1 (protein) MNTGEYNKLGSAIEEVSRGQLGRWECYKQRLFFLVLALLVATVLWALILSTLLSSASSKLRVLLSHQDLLRTNASEQKMTLSSLKDDIGACRNCCSVTKAQLQTTLAEFKDIQAKLMEQESILKELQERVTQDLAKASRDRENIRSELFQALEAVKRQNSSCEQCPPSWLPFQGSCYYFSETQATWDTAQSYCGGQGAHLVIVRGLNEQGFLSQHTRGRGYWLGLRAVRHLNKIQGYRWVDGASLNFSHWNSGEPNDSRGHEDCIMMLHSGLWNDAPCTNERDGWICEKRSSCY	-0.181
CLEC9a (Mus musculus), Q8BRU4 (protein) MHAEEIYTSLQWDIPTSEASQKCQSPSKCSGAWCVVTMISCVVCMGLLATSIFLGIKFFQVSSLVLEQQERLIQQDTALVNLTQWQRKYTLEYCQALLQRSLHSGSDCSPCPHNWIQNGKSCYYVFERWEMWNISKKSCLKEGASLFQIDSKEEMEFISSIGKLKGGNKYWVGVFQDGISGSWFWEDGSSPLSDLLPAERQRSAGQICGYLKDSTLISDKCDSWKYFICEKKAFGSCI	1.35
Agalectin (Anopheles gambiae) (protein) MSNRPFTAKFPRYPENGDEVFIRGKLKDDAKSFSVNFCLPRPAQVAEHQTPPYIALHFKTIYDERDDTSRVVLNWKNLQWQQEEVLDNYWHVDRSQTFRVVFRLHEDCIKVFVNSVDHPPDYQFPVQLPLDQIESIELWDDVEHVEEISFRYDNGNSY	3.95
